Test system: A549
Assay: Cytotoxicity against human A549 cells by MTT assay
Format: functional, cell-based
Would you mind sorting the entries by IC50 according to these classes? range 1 = under 4 µM, range 2 = from 4 µM up to 20 µM, range 3 = 20 µM and over

• CCCCOc1ccc2c3cc[n+](Cc4ccccc4)c(C)c3n(CC)c2c1 = range 2
• CCOc1ccc2c3cc[n+](Cc4ccccc4)c(C)c3n(CC)c2c1 = range 2
• CCn1c2cc(OCC(C)C)ccc2c2ccnc(C)c21 = range 3
• CCn1c2cc(OCCCc3ccccc3)ccc2c2cc[n+](Cc3ccccc3)c(C)c21.[Br-] = range 1
• CCCCCCCCCCOc1ccc2c3cc[n+](Cc4ccccc4)c(C)c3n(CC(C)C)c2c1 = range 1
• CCCCn1c2cc(OC(CC)CC)ccc2c2ccnc(C)c21 = range 3
• Cc1c2c(cc[n+]1Cc1ccccc1)c1ccc(OCC(C)C)cc1n2CC(C)C = range 2
• CCn1c2cc(OCc3c(F)c(F)c(F)c(F)c3F)ccc2c2cc[n+](Cc3ccccc3)c(C)c21.[Br-] = range 1
• CCCCn1c2cc(OCc3ccccc3)ccc2c2cc[n+](Cc3ccccc3)c(C)c21 = range 2
• Cc1c2c(cc[n+]1Cc1ccccc1)c1ccc(OCCCc3ccccc3)cc1n2CCCc1ccccc1.[Br-] = range 1
• CCCCn1c2cc(OCC(C)C)ccc2c2cc[n+](Cc3ccccc3)c(C)c21 = range 1
• Cc1c2c(cc[n+]1Cc1ccccc1)c1ccc(OCc3ccccc3)cc1n2CC(C)C.[Br-] = range 1
• Cc1c2c(cc[n+]1Cc1ccccc1)c1ccc(OCCCc3ccccc3)cc1n2CC(C)C = range 1
• Cc1nccc2c3ccc(OCC(C)C)cc3n(CC(C)C)c12 = range 3
• CCCCCCCCOc1ccc2c3cc[n+](Cc4ccccc4)c(C)c3n(CCCc3ccccc3)c2c1 = range 1
• CCCCOc1ccc2c3cc[n+](Cc4ccccc4)c(C)c3n(CC(C)C)c2c1 = range 1
• CCCCOc1ccc2c3cc[n+](Cc4ccccc4)c(C)c3n(CCCc3ccccc3)c2c1 = range 1
• CCCCn1c2cc(OCC(C)C)ccc2c2ccnc(C)c21 = range 3
• CCn1c2cc(OCCCc3ccccc3)ccc2c2ccnc(C)c21 = range 3
• CCCCn1c2cc(OCCCc3ccccc3)ccc2c2ccnc(C)c21 = range 3
• CCCCCCCCOc1ccc2c3cc[n+](Cc4ccccc4)c(C)c3n(CCCC)c2c1 = range 1

----------
System: Mus musculus
Test: Neurotoxicity in ip dosed C57BL/6 mouse assessed as tremble, twitch, jumping and supination response
Format: toxicity, organism-based
Details: in vivo
endpoint: Activity

• CCn1c2cc(OCCCc3ccccc3)ccc2c2cc[n+](Cc3ccccc3)c(C)c21.[Br-] = Non-toxic
• CCn1c2cc(OCC(C)C)ccc2c2ccnc(C)c21 = Non-toxic
• COc1ccc2c(c1)[nH]c1c(C)nccc12 [HARMINE] = Toxic
• O=P1(N(CCCl)CCCl)NCCCO1 (stereo unspecified) [CYCLOPHOSPHAMIDE ANHYDROUS] = Non-toxic
• CCn1c2cc(OCC(C)C)ccc2c2cc[n+](Cc3ccccc3)c(C)c21.[Br-] = Non-toxic
• Cc1c2c(cc[n+]1Cc1ccccc1)c1ccc(OCc3ccccc3)cc1n2CC(C)C.[Br-] = Non-toxic

----------
System: A549
Assay: Cytotoxicity against human A549 cells by MTT assay
Assay type: functional, cell-based
// IC50 lookup, one value per entry
endpoint: IC50 (µM)

• CCn1c2cc(OCc3ccccc3)ccc2c2cc[n+](Cc3ccccc3)c(C)c21 = 19.6
• CCn1c2cc(OCC(C)C)ccc2c2cc[n+](Cc3ccccc3)c(C)c21.[Br-] = 11.6
• CCCCn1c2cc(OCc3ccccc3)ccc2c2ccnc(C)c21 = 18.1
• CCC(CC)Oc1ccc2c3cc[n+](Cc4ccccc4)c(C)c3n(CCCc3ccccc3)c2c1.[Br-] = 2
